From: the supplement of paper PMC8671470

# Test system: THP-1
# assay-remarks: cell viability (% survival relative to DMSO control, bortezomib = 0%); higher = less cytotoxic
# applied-conditions: 1000 nM; 72 h
measured-quantity: cell viability (%)
Expressed in %, but write only the number.

> print(dat)
                                   compound   val
1  Cc1ccccc1C(C(=O)NC1CCCCC1)N(C(=O)Cn1ccnc1C)c1cccc(F)c1 (stereo not given)   101
2  O=C1O[C@H]([C@@H](O)CO)C(O)=C1O [Vitamin C (ascorbate)]   103
3       CCCc1cc(-c2nc(-c3ccc(C)cc3)cs2)ccn1  98.5
4  CCN(CC)CCCC(C)Nc1ccnc2cc(Cl)ccc12 (stereo not given)  98.7

Next compound, please.
Quick check: cell viability of COc1cc(/C=C/C(=O)N2CCC=CC2=O)cc(OC)c1OC ? 88

* * *

A collection of molecules and their measured cell viability
# Test system: LAMA-84
# assay-remarks: cell viability (% survival relative to DMSO control, bortezomib = 0%); higher = less cytotoxic
# applied-conditions: 10000 nM; 72 h
Only the number, expressed in %, is required.

> print(dat)
                                   molecule   val
1  COc1ccc2c(C(=S)N(C)CC(=O)O)cccc2c1C(F)(F)F [Tolrestat]  98.6
2  O=c1cc(-c2ccccc2)oc2cc(O)c(O)c(O)c12 [Baicalein]    75

Lab note: next molecule to report on.
What value of measured cell viability is listed for O=C(O)CCCCC(CCSCc1ccccc1)SCc1ccccc1 (stereo not drawn) [CPI-613] ? 97.5

* * *

# System: myeloid leukemia patient primary cells Pat.10
# assay-remarks: cell viability (% survival relative to DMSO control); higher = less cytotoxic
# applied-conditions: 10000 nM; 72 h
measured-quantity: cell viability (%)
Your answer should be a plain number; it is taken to be in %.

Below are worked cases with known answers.
> print(dat)
                                   compound   val
1  Nc1nc(Cl)nc2c1ncn2[C@H]1C[C@H](O)[C@@H](CO)O1 [Cladribine]  6.29
2  O=C1c2cc([N+](=O)[O-])ccc2-n2c1nc1ccccc1c2=O [GNF-Pf-3777]  15.5

Data request, read-out cell viability, for C=C(C)[C@H]1Cc2c(ccc3c2O[C@@H]2COc4cc(OC)c(OC)cc4[C@@H]2C3=O)O1 [Rotenone] 20.9

* * *

# Test system: HL-60
# assay-remarks: cell viability (% survival relative to DMSO control); higher = less cytotoxic
# applied-conditions: 0.001 µM; 72 h; co-treatment: DMSO vehicle
Listed here are molecules together with their documented cell viability.
Number only, in %; omit the unit.

What cell viability value was documented for this molecule, Cc1coc2c1C(=O)C(=O)c1c-2ccc2c1CCCC2(C)C ? 100

Quick one: Cc1c(-c2ccc(-c3ccccc3F)cc2)nc2ccc(F)cc2c1C(=O)O 99.9

What do you have for CCCCCCCCCCCC(=O)c1c(O)c(C(=O)CCCCCCCCCCC)c(O)c(C2CC(c3ccc(O)cc3)Oc3cc(O)ccc32)c1O (configuration not stated) ? 99.8

Next entry: Cn1cc(-c2ccncc2)c(-c2ccc(OCc3ccc4ccccc4n3)cc2)n1 99.1

Next molecule: CC[C@@]1(O)C(=O)OCc2c1cc1n(c2=O)Cc2cc3c(CN(C)C)c(O)ccc3nc2-1 101

What would you report for CC1(C)[C@@H](O[C@H]2O[C@H](C(=O)O)[C@@H](O)[C@H](O)[C@H]2O[C@@H]2O[C@H](C(=O)O)[C@@H](O)[C@H](O)[C@H]2O)CC[C@]2(C)[C@H]3C(=O)C=C4[C@@H]5C[C@@](C)(C(=O)O)CC[C@]5(C)CC[C@@]4(C)[C@]3(C)CC[C@@H]12 ? 102

Then what about the molecule O=C(O)C[C@@]1(O)C[C@@H](CCCCCCc2ccc(Cl)cc2Cl)OC1=O ? 102

Same question, COc1ccc2c(C(=S)N(C)CC(=O)O)cccc2c1C(F)(F)F this time 96

Repeat for the following molecule: N/C(=N\CCCC(N)C(=O)O)N[N+](=O)[O-] (configuration not stated) 103

Input C[C@](N)(Cc1ccc(O)cc1)C(=O)O 108

* * *

# Test system: HL-60
# assay-remarks: cell viability (% survival relative to DMSO control); higher = less cytotoxic
# applied-conditions: 10 µM; 72 h; co-treatment: DMSO vehicle
measured-quantity: cell viability
Your answer should be a number followed by the unit of measure.

Example entries begin here.
> print(dat)
                                   molecule  target.of.assay    val
1  COc1ccc(C(=O)Nc2c(Cl)cncc2Cl)cc1OC1CCCC1 [Piclamilast]            HL-60   105%
2  C=C(C)[C@H]1Cc2c(ccc3c2O[C@@H]2COc4cc(OC)c(OC)cc4[C@@H]2C3=O)O1 [Rotenone]            HL-60  10.4%
3  CCCc1cc(-c2nc(-c3ccc(C)cc3)cs2)ccn1 [Fatostatin]            HL-60  94.4%

Next, consider the following molecule.
Value lookup for cell viability; key = COc1ccc(S(=O)(=O)N2CCN(S(=O)(=O)c3ccc4c(c3)OCCO4)CC2)cc1 [BML283] 97.1%

* * *

# System: THP-1
# assay-remarks: cell viability (% survival relative to DMSO control, bortezomib = 0%); higher = less cytotoxic
# applied-conditions: 1000 nM; 72 h
In this section, each of the compounds is paired with its reported cell viability.
Please format your answer as a value with the unit trailing.

Some compounds with recorded cell viability:
> print(dat)
                                   compound    val
1     C=C(C=NNC(=N)N)NNC(=N)N [Mitoguazone]  76.1%
2  Nc1ccccc1C(=O)C[C@H](N)C(=O)O [L-Kynurenine]   102%
3  O=C(O)c1cc(N=Nc2ccc(S(=O)(=O)Nc3ccccn3)cc2)ccc1O [Sulfasalazine]   101%
4  CCOP(=O)(OCC)C(=Cc1cc(C(C)(C)C)c(O)c(C(C)(C)C)c1)P(=O)(OCC)OCC  83.9%
5  O=c1oc2c(O)c(O)cc3c(=O)oc4c(O)c(O)cc1c4c23 [Benzoaric Acid]  99.4%

// cell viability lookup, key: Nc1nc(Cl)nc2c1ncn2[C@H]1C[C@H](O)[C@@H](CO)O1 [Cladribine] 24.2%

Same lookup for CCCCC/C=C\C/C=C\C/C=C\C/C=C\CCCCN1C(=O)C=CC1=O [N-Arachidonylmaleimide] , please. 97.7%

Item: C[C@](N)(Cc1ccc(O)cc1)C(=O)O [Metirosine] 94.3%

Another compound: N#CC(C#N)=NNc1ccc(OC(F)(F)F)cc1 [FCCP] 102%

For CC(C)c1cc2c(c(O)c1O)[C@@]1(C(=O)O)CCCC(C)(C)[C@@H]1CC2 [Carnosic acid] then? 83.9%

Thanks! And N/C(=N\CCCC(N)C(=O)O)N[N+](=O)[O-] [L-NNA] ? 93%

* * *

Listing of entries alongside the reported cell viability.
# System: KCL-22
# assay-remarks: cell viability (% survival relative to DMSO control, bortezomib = 0%); higher = less cytotoxic
# applied-conditions: 1000 nM; 72 h
Answer in %, number only, no unit symbol.

> print(dat)
                                   compound   val
1  N/C(=N\CCCC(N)C(=O)O)N[N+](=O)[O-] (stereo not given)  94.8

Given C[C@H](NC(=O)c1sccc1OCc1ccc(Cl)cc1)c1ccccc1 , state its recorded cell viability. 84

Param item: COc1ccc(C(=O)Nc2c(Cl)cncc2Cl)cc1OC1CCCC1 102

Please do the same for CCCCN1C[C@H](O)[C@@H](O)[C@H](O)[C@H]1CO as well. 98.1

Moving on to CCC(=O)N1CCN(c2ccc(-n3c(=O)ccc4cnc5ccc(-c6cnc7ccccc7c6)cc5c43)cc2C(F)(F)F)CC1 10.9

* * *

# System: HL-60
# assay-remarks: cell viability (% survival relative to DMSO control); higher = less cytotoxic
# applied-conditions: 0.1 µM; 72 h; co-treatment: AZD3965 100 nM
measured-quantity: cell viability (%)
Return type: number; implicit unit %.

compound	cell viability [%]
CN(C)c1cc(NC(=O)CNC(C)(C)C)c(O)c2c1C[C@H]1C[C@H]3[C@H](N(C)C)C(=O)C(C(N)=O)C(=O)[C@@]3(O)C(=O)C1C2=O (stereo partly drawn) [Tigecycline]	106

Identify the measured cell viability of CCCCC/C=C\C/C=C\C/C=C\C/C=C\CCCCN1C(=O)C=CC1=O [N-Arachidonylmaleimide] for HL-60. 98.6

Field entry: Cc1ccccc1C(C(=O)NC1CCCCC1)N(C(=O)Cn1ccnc1C)c1cccc(F)c1 (stereo not drawn) [AGI-5198] 93.2

Would you mind doing COc1ccc(CNC(=O)Nc2ncc([N+](=O)[O-])s2)cc1 as well? 102

What do you have for C=C(C)[C@H]1Cc2c(ccc3c2O[C@@H]2COc4cc(OC)c(OC)cc4[C@@H]2C3=O)O1 [Rotenone] ? 83

Same read-out for CCCCN1C[C@H](O)[C@@H](O)[C@H](O)[C@H]1CO [Miglustat] ? 106

Now consider CCCc1cc(-c2nc(-c3ccc(C)cc3)cs2)ccn1 [Fatostatin] . 102

Cool, now NS(=O)(=O)c1ccc([N+](=O)[O-])cc1 [4-Nitrobenzenesulfonamide] 103
